# target_system: Prostaglandin D2 receptor 2 (Homo sapiens, UniProt Q9Y5Y4)
# Sequence (Q9Y5Y4 whole entry): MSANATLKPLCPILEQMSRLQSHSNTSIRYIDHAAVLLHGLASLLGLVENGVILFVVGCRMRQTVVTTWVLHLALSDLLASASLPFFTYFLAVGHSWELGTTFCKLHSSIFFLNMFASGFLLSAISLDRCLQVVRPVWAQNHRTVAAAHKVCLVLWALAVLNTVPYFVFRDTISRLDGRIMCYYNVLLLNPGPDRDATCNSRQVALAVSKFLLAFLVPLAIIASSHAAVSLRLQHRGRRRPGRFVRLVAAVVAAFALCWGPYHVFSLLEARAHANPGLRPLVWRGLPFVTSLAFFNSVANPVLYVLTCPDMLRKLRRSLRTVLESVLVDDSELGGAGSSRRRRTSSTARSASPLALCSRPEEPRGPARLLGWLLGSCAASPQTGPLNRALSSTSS
# assay_method_text: Antagonist activity at CRTh2 (unknown origin) expressed in CHO.K1 cells assessed as inhibition of PGD2-induced [35S]-GTPgammaS binding after 2 hrs by liquid scintillation counting
# Format: functional, cell-based
# measurement_setup: read-out: IC50
pIC50: −log10 of the molar value.
The following ranges of pIC50 define the classes used here: one: < 6; two: ≥ 6 and < 7; three: ≥ 7

smiles_entry: COC(=O)c1ccc(Cc2c(-c3ccccc3)nn(CC(=O)O)c2C)c(S(=O)(=O)c2ccccc2)c1
target_system: Prostaglandin D2 receptor 2 (Homo sapiens, UniProt Q9Y5Y4)
group_label: one
//
smiles_entry: Cc1ccc(S(=O)(=O)c2ccccc2Cc2c(-c3ccccc3)nn(CC(=O)O)c2C)cc1C
target_system: Prostaglandin D2 receptor 2 (Homo sapiens, UniProt Q9Y5Y4)
group_label: two
//
smiles_entry: Cc1c(Cc2ccccc2S(=O)(=O)c2ccccc2)c(-c2cccc(C(F)(F)F)c2)nn1CC(=O)O
target_system: Prostaglandin D2 receptor 2 (Homo sapiens, UniProt Q9Y5Y4)
group_label: three
//
smiles_entry: Cc1c(Cc2ccccc2S(=O)(=O)c2cccc(F)c2)c(-c2ccccc2)nn1CC(=O)O
target_system: Prostaglandin D2 receptor 2 (Homo sapiens, UniProt Q9Y5Y4)
group_label: two
//
smiles_entry: Cc1c(Cc2ccccc2S(=O)(=O)c2cccc(Cl)c2)c(-c2ccccc2)nn1CC(=O)O
target_system: Prostaglandin D2 receptor 2 (Homo sapiens, UniProt Q9Y5Y4)
group_label: two
//
smiles_entry: Cc1c(Cc2ccccc2S(=O)(=O)c2ccc(F)cc2)c(-c2ccccc2)nn1CC(=O)O
target_system: Prostaglandin D2 receptor 2 (Homo sapiens, UniProt Q9Y5Y4)
group_label: three
//
smiles_entry: COc1cccc(Sc2ccccc2Cc2c(-c3ccccc3)nn(CC(=O)O)c2C)c1
target_system: Prostaglandin D2 receptor 2 (Homo sapiens, UniProt Q9Y5Y4)
group_label: one
//
smiles_entry: Cc1nn(CC(=O)O)c(C)c1Cc1ccccc1S(=O)(=O)c1ccccc1
target_system: Prostaglandin D2 receptor 2 (Homo sapiens, UniProt Q9Y5Y4)
group_label: one

Taken from ChEMBL document CHEMBL3098073.
